# credit: patent US10975068B2

- assayedSystem: UniProt P51449
- Sequence (P51449 other isoform, or with tags, fused parts or gaps): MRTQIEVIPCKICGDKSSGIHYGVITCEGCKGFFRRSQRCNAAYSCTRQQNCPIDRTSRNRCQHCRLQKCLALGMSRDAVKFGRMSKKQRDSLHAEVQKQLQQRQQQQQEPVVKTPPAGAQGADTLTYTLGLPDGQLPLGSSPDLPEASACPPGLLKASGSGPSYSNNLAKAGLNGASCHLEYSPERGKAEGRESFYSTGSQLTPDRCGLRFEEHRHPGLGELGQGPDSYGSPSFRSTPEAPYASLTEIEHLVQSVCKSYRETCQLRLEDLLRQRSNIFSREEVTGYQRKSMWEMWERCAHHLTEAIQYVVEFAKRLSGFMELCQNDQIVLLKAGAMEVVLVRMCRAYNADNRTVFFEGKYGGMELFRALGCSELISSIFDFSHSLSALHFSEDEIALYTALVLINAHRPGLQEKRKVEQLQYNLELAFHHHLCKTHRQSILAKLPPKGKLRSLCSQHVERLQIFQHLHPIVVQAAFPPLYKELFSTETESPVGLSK
- protocolText: RORγt (full-length human) reporter assay, Conditions B or C
- Type: cell-based
- conditionDetails: read-out: RORγt (FL) Reporter Assay B or C, IC50
pIC50: −log10 of the molar value.
measuredAttribute: pIC50

C[C@H]1CCCN1C(=O)c1nc(C(=O)NC2CS(=O)(=O)C2)sc1-c1cnc(NC(C)(C)C)cc1C(F)(F)F [Example 260] ... 7.85
C[C@H]1CCCN1C(=O)c1nc(C(=O)NCC(C)(O)C(F)(F)F)sc1-c1cnc(NC(C)(C)C)cc1C(F)(F)F (single isomer, unassigned) [Example 359] ... 8.12
C[C@H](Nc1cc(C(F)F)c(-c2sc(C(=O)NC3CCC3O)nc2C(=O)N2CCC[C@@H]2C)cn1)C(F)(F)F (stereo partly shown) [Example 389] ... 6.85
C[C@H]1CCCN1C(=O)c1nc(C(=O)N[C@H](C)C(C)(C)O)sc1-c1cnc(N[C@H](C)C(F)(F)F)cc1C(F)F [Example 306] ... 6.89
C[C@H]1CCCN1C(=O)c1nc(C(=O)NCC(O)(C(F)(F)F)C(F)(F)F)sc1-c1cnc(NC(C)(C)C)cc1C(F)(F)F [Example 271] ... 8.24

(P) C[C@H]1CCCN1C(=O)c1nc(C(=O)NCC(C)(C)O)sc1-c1cnc(N[C@H](C)C(C)(C)C)cc1C(F)F [Example 298]
(Q) C[C@H]1CCCN1C(=O)c1nc(C(=O)N[C@H](C)C(C)(C)O)sc1-c1cnc(N[C@@H](C2CC2)C(F)(F)F)cc1C(F)F [Example 311]
Asked: Of P and Q , whose reported pIC50 is numerically smaller? Select an item and report its label.
Given back: Q

(I) C[C@H]1CCCN1C(=O)c1nc(C(=O)NCC(C)(C)N)sc1-c1cnc(NC(C)(C)C)cc1C(F)(F)F [Example 355]
(II) C[C@H]1CCCN1C(=O)c1nc(C(=O)NCC(C)(C)O)sc1-c1cnc(N[C@@H]2CCCC2(F)F)cc1C(F)(F)F (single isomer, unassigned) [Example 280]
Asked: Consider I and II . Which of these has its pIC50 at a higher number? Select an item and report its label.
Given back: II

(P) C[C@H]1CCCN1C(=O)c1nc(C(=O)N[C@@H]2CC[C@@H](O)C2)sc1-c1cnc(NC(C)(C)C)cc1C(F)F [Example 432]
(Q) C[C@H]1CCCN1C(=O)c1nc(C(=O)NC2(CO)CCC2)sc1-c1cnc(NC(C)(C)C)cc1C(F)(F)F [Example 262]
Asked: Of P and Q , whose reported pIC50 is numerically smaller? Select an item and report its label.
Given back: Q
(Q: 7.70, P: 7.96)

(I) C[C@H](Nc1cc(C(F)F)c(-c2sc(C(=O)N3CC(S(C)(=O)=O)C3)nc2C(=O)N2CCC[C@@H]2C)cn1)C(F)(F)F [Example 450]
(II) C[C@H]1CCCN1C(=O)c1nc(C(=O)NCc2n[nH]c(=O)o2)sc1-c1cnc(NC(C)(C)C)cc1C(F)(F)F [Example 305]
Asked: Consider I and II . Which of these has its pIC50 at a higher number? Select an item and report its label.
Given back: II
(II: 7.44, I: 6.64)
